Values from patent US20230159453A1

Molecular target: SARS2 protease (Severe acute respiratory syndrome coronavirus 2)
Experiment: SARS-CoV-2 protease inhibition assay (SARS2 FRET protease assay)
Assay type: biochemical
Details: SARS-CoV-2 protease 25 nM, FRET, peptide substrate 1.3 μM, 30 minutes at 30° C., compounds 20 μM to 1.0 nM; read-out: IC50
Measurement label: IC50

Entry CC(C)C[C@H](NC(=O)OC1(Cc2cccc(Cl)c2)CC1)C(=O)N[C@H](C=O)C[C@@H]1CCNC1=O [Compound C45] , system SARS2 protease (Severe acute respiratory syndrome coronavirus 2): what IC50 was measured?
0.304 µM

Reported IC50 for SARS2 protease (Severe acute respiratory syndrome coronavirus 2), given CCOCCNC(=O)C(=O)[C@H](C[C@@H]1CCNC1=O)NC(=O)[C@H](CC1CCCCC1)NC(=O)OC(c1ccccc1)C(C)(C)c1cccc(Cl)c1 (stereo partly drawn) [Compound C271] ?
2 µM

Checklist item: IC50 tested on SARS2 protease (Severe acute respiratory syndrome coronavirus 2), entry O=C[C@H](C[C@@H]1CCNC1=O)NC(=O)[C@H](CC1CCCCC1)NC(=O)OC(c1cccc(Cl)c1)C1(c2cccc(Cl)c2)CC1 (stereo partly drawn) [Compound C250] , value?
0.01 µM

What IC50 appears in the records for this molecule with SARS2 protease (Severe acute respiratory syndrome coronavirus 2)? CC(C)(c1cccc(Cl)c1)C(OC(=O)N[C@@H](CC1CCCCC1)C(=O)N[C@@H](C[C@@H]1CCNC1=O)C(=O)C(=O)NC1CC1)c1ccc(Cl)cc1 (stereo partly drawn) [Compound C145]
4.3 µM

Entry CN(CCc1ccccc1)C(=O)CC[C@@H](C=O)NC(=O)[C@H](CC1CCCCC1)NC(=O)OC1(c2cccc(Cl)c2)CC1 [Compound C10] , system SARS2 protease (Severe acute respiratory syndrome coronavirus 2): what IC50 was measured?
> 200 µM

Hi! What's the reported IC50 for CC(C)C[C@H](NC(=O)OC(C)(C)Cc1ccccc1)C(=O)N[C@@H](C[C@@H]1CCNC1=O)C(=O)C(N)=O [Compound C79] on SARS2 protease (Severe acute respiratory syndrome coronavirus 2)?
3.8 µM
